Assay: Cell viability assay
Format: cell-based
Conditions: human, MCF-10A mammary gland epithelial cells
MEASUREMENT KIND: viability at 96 h, 50 µM (%)
Record the value in %, omitting the unit from your answer.

Output measured viability at 96 h, 50 µM for this item: CO/C=C/c1c(C(=O)NC(CO)Cc2ccccc2)[nH]c2ccc(Cl)cc12 (stereo not shown) [Compound 6a]
86

Tell me its viability at 96 h, 50 µM given CO/C=C/c1c(C(=O)N2CCN(c3ccccc3)CC2)[nH]c2ccc(Cl)cc12 [Compound 6d] as the entry.
89

Answer with the recorded viability at 96 h, 50 µM of CO/C=C/c1c(C(=O)NCCc2ccc(N3CCCCC3)cc2)[nH]c2ccc(Cl)cc12 [Compound 5b] only.
89

Return viability at 96 h, 50 µM (reported value) for this compound: CO/C=C/c1c(C(=O)NCCc2ccc(N3CCOCC3)cc2)[nH]c2ccc(Cl)cc12 [Compound 5g]
89

Report viability at 96 h, 50 µM, nothing else, for this compound: CO/C=C/c1c(C(=O)NCCc2cccc(N3CCCCC3)c2)[nH]c2ccc(Cl)cc12 [Compound 5c]
87

Fill in viability at 96 h, 50 µM for record CO/C=C/c1c(C(=O)NCc2ccccc2)[nH]c2ccc(Cl)cc12 [Compound 6c]
85

Find the measured viability at 96 h, 50 µM of CO/C=C/c1c(C(=O)NCc2nc3ccccc3[nH]2)[nH]c2ccc(Cl)cc12 [Compound 6f] and report it.
89

----------
Please respond with reported pIC50 for every item in the list.
# log scale: pIC50 equals minus log10 of the concentration in mol/L

Give EGFR^WT (Homo sapiens) pIC50 for the following compound: CO/C=C/c1c(C(=O)NCCc2ccc(N(C)C)cc2)[nH]c2ccc(Cl)cc12
7.07

Provide pIC50, system EGFR^WT (Homo sapiens), entry CO/C=C/c1c(C(=O)NCCc2cccc(N3CCCCC3)c2)[nH]c2ccc(Cl)cc12
6.99

State pIC50 on EGFR^WT (Homo sapiens). Entry: CO/C=C/c1c(C(=O)NCCc2ccc(N3CCOCC3)cc2)[nH]c2ccc(Cl)cc12
Sequence (P00533 669-1210): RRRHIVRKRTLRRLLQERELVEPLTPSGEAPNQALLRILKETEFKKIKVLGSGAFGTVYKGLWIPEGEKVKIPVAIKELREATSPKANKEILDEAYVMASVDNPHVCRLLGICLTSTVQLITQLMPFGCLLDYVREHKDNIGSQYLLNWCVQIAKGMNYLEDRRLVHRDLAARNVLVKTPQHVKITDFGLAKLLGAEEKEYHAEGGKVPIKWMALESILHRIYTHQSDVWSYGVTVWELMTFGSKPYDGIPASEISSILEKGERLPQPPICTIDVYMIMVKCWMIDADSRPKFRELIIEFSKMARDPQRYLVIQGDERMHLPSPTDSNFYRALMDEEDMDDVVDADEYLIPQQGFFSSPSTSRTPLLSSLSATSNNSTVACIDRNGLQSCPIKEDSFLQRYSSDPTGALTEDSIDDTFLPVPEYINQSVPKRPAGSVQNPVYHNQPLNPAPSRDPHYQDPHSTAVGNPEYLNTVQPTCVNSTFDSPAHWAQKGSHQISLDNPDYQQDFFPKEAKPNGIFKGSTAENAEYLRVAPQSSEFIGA
7.13

Please indicate recorded pIC50 of CO/C=C/c1c(C(=O)N2CCC(Cc3ccccc3)CC2)[nH]c2ccc(Cl)cc12 measured with EGFR^WT (Homo sapiens).
7.01

Fill in pIC50 for CO/C=C/c1c(C(=O)NCc2nc3ccccc3[nH]2)[nH]c2ccc(Cl)cc12 tested with EGFR^WT (Homo sapiens).
7.03

Enter measured pIC50, system EGFR^WT (Homo sapiens), for the compound shown: CO/C=C/c1c(C(=O)NCCc2ccc(N3CCCC3C)cc2)[nH]c2ccc(Cl)cc12 (stereo not drawn)
7.17

----------
Test system: HT-29 (colon cancer cell line)
Experiment: Antiproliferative assay, HT-29
Assay type: cell-based
Details: Homo sapiens, HT-29, read-out: Antiproliferative activity IC50 ± SEM, HT-29
I'd be grateful if you could share measured IC50 for these entries.
// note: answer is a bare numeric in nM

Tell me measured IC50 for O=c1c2[nH]c3ccc(Cl)cc3c2ccn1CCc1ccccc1 please.
55

Name the recorded IC50 of the compound listed here: CO/C=C/c1c(C(=O)NCCc2ccc(N3CCCC3)cc2)[nH]c2ccc(Cl)cc12
71

Give recorded IC50. CO/C=C/c1c(C(=O)NC(CO)Cc2ccccc2)[nH]c2ccc(Cl)cc12 (stereo not shown)
89

# return recorded IC50 for entry CO/C=C/c1c(C(=O)NCCc2ccc(N3CCCCC3)cc2)[nH]c2ccc(Cl)cc12
78

Recall and state the measured IC50 for CO/C=C/c1c(C(=O)NCCc2ccccc2)[nH]c2ccc(Cl)cc12 .
75

Respond only with IC50 recorded for CO/C=C/c1c(C(=O)NCc2nc3ccccc3[nH]2)[nH]c2ccc(Cl)cc12
42

Write down IC50 measured for item CO/C=C/c1c(C(=O)N2CCN(c3ccccc3)CC2)[nH]c2ccc(Cl)cc12
85

Return value of IC50 for input CO/C=C/c1c(C(=O)NCCc2ccc(N3CCOCC3)cc2)[nH]c2ccc(Cl)cc12 , no commentary.
32

Determine from records and report IC50 for CO/C=C/c1c(C(=O)NCCc2ccc(N3CCCC3C)cc2)[nH]c2ccc(Cl)cc12 (stereo not shown)
30

Entry C#Cc1cccc(Nc2ncnc3cc(OCCOC)c(OCCOC)cc23)c1 [Erlotinib, reference compound] needs its IC50 filled in; supply it.
30

Assign IC50 to the following record: CO/C=C/c1c(C(=O)NCc2ccccc2)[nH]c2ccc(Cl)cc12
64

Fill in reported IC50 for this entry: O=c1c2[nH]c3ccc(Cl)cc3c2ccn1CCc1ccc(N2CCCCC2)cc1
57

Write down IC50 measured for item CO/C=C/c1c(C(=O)NCCc2cccc(N3CCCCC3)c2)[nH]c2ccc(Cl)cc12
47

Provide one value: measured IC50 of CO/C=C/c1c(C(=O)NCCc2ccc(N(C)C)cc2)[nH]c2ccc(Cl)cc12
38

Using the record for CO/C=C/c1c(C(=O)N2CCC(Cc3ccccc3)CC2)[nH]c2ccc(Cl)cc12 , state its measured IC50.
45

Give the reported IC50 for this compound. CO/C=C/c1c(C(=O)NC2c3ccccc3-c3ccccc32)[nH]c2ccc(Cl)cc12
104
